All values here come from ChEMBL document CHEMBL1201862.

tested on: U-251; assay: NCI tumour cell line growth inhibition, 48 h
Activity calls are given as the source filed them. Cut-off read from the data, not from the text of the source: active = GI50 up to about 1.1 µM and inactive = higher.
EXPERIMENTAL READOUT: GI50

Below, 6 compounds whose answers are already recorded.
CC(C)(CO)CNc1nc(N)nc(Cl)c1N
> 100 µM (inactive)
N#C/C(=C/NC(=S)c1ccncc1)C(N)=O
> 100 µM (inactive)
Nc1ncnc2c1ncn2C1OC(CO)C(O)C(O)C1O (stereo not given)
> 100 µM (inactive)
O=C1C=C(c2c(-c3ccccc3)[nH]c3ccccc23)C(=O)N1c1ccccc1
13.5 µM (inactive)
CN(C)NC1=NS(=O)(=O)c2cc3c(=O)n(C)[nH]c3cc2S1
> 10 µM (inactive)
Nc1nc2c(nnn2C2C=C(CO)C(O)C2O)c(=O)[nH]1 (stereo not given)
> 100 µM (inactive)

Sample CCC1(C)NN=c2s/c(=C/c3ccc(OC)cc3)c(=O)n2N1 (stereo not given) , system: U-251. Its GI50 is > 100 µM (inactive)

Tested on U-251: COc1ccc(C(O)c2nccn2C)c(OC)c1 (stereo not given) . Observed GI50: > 100 µM (inactive)

Reported U-251 GI50 for item `COC(=O)[C@@H]1[C@H](O)[C@H](C)[C@H](O)[C@H](C)/C=C\C=C(\C)C(=O)Nc2c(C)c(OC(C)=O)c3c(c2O)C(=O)C(C)=C2OCOC(=C23)/C(C)=C/[C@@H](O)[C@H](O)[C@@H](C)[C@H]1OC(C)=O` was > 100 µM (inactive)

Item `Cn1nc(S(N)(=O)=O)s/c1=N/S(=O)(=O)c1ccc(N)cc1` was tested on U-251; the reported GI50 is > 100 µM (inactive)

Assay U-251, sample `O=S1(=O)NN=C(NCc2ccc(Cl)c(Cl)c2)c2ccccc21` , GI50 read: 30.2 µM (inactive)

The recorded GI50 with U-251 for CC1C2C=C(O)C(=O)C(C2=O)C1c1ccccc1 (stereo not given) was > 100 µM (inactive)

`Clc1cc(OCc2nn3c(Cc4ccccc4)nnc3s2)ccc1OCc1nn2c(Cc3ccccc3)nnc2s1` tested on U-251 gave GI50: 21.6 µM (inactive)

The measured GI50 that COC(=O)C1=C(c2cc(OC)c(OC)c(OC)c2)OC(c2cc(OC)c(OC)c(OC)c2)C1COC(C)=O (stereo not given) showed for U-251 is 51.6 µM (inactive)

Record CC(C)c1cc2c(cc1S(=O)(=O)O)[C@@]1(C)CCC[C@@](C)(C(=O)O)C1CC2 (stereo not given in full) ; system U-251; GI50 = > 100 µM (inactive)

Entry C=C1C(=O)OC2C1C(OC(=O)/C(C)=C/C)CC1(C)C(=O)CCC(=C)C21 (stereo not given) , tested on U-251, has a reported GI50 of 13.1 µM (inactive)

Hey, U-251 data for `Cc1ccc(S(=O)(=O)N/N=C2/C(=O)Nc3c(Cl)cc(Cl)cc32)cc1` : GI50 came out at 58.1 µM (inactive)

Form field GI50 for item `O=S(=O)(/N=C(\NO)Nc1ccc(Cl)cc1)c1ccc(-c2ccccn2)s1` on U-251: 44.4 µM (inactive)

Entry CC(C)N1CN(C(C(=O)N[C@@H]2C(=O)N3C2SC(C)(C)C3C(=O)O)c2ccc(O)cc2)CSC1=S (stereo not given in full) : GI50 on U-251 = > 100 µM (inactive)

The reported U-251 GI50 of `Cc1nnc2n1N=C(c1cc(F)c(Cl)cc1Cl)/C(=C/c1ccc3c(c1)OCO3)S2` is 56.6 µM (inactive)
